species on record: Rattus norvegicus; assay: DrugMatrix - Regimen: Daily Repeat; assay type: toxicity, organism-based, Sprague-Dawley; set-up: regimen Daily Repeat, gender Male, age 6-8 weeks; conditions: in vivo, po, 0 mg/kg, 120 h, tissue Blood, route oral GAVAGE, dose level Control, time 5 day, vehicle 100 % WATER
ABSOLUTE EOSINOPHIL values by entry
result_type: ABSOLUTE EOSINOPHIL (CELLS/uL)

CC[C@H]1OC(=O)[C@H](C)[C@@H](O[C@H]2C[C@@](C)(OC)[C@@H](O)[C@H](C)O2)[C@H](C)[C@@H](O[C@@H]2O[C@H](C)C[C@H](N(C)C)[C@H]2O)[C@](C)(OC)C[C@@H](C)C(=O)[C@H](C)[C@@H](O)[C@]1(C)O; 34.5
CCCCCCCCCCCCCCCC[n+]1ccccc1.[Br-]; 19.33
CNS(=O)(=O)Cc1ccc2[nH]cc(CCN(C)C)c2c1; 26.67
CC[C@H]1OC(=O)[C@H](C)[C@@H](O[C@H]2C[C@@](C)(OC)[C@@H](O)[C@H](C)O2)[C@H](C)[C@@H](O[C@@H]2O[C@H](C)C[C@H](N(C)C)[C@H]2O)[C@](C)(O)C[C@@H](C)CN(C)[C@H](C)[C@@H](O)[C@]1(C)O; 48.67
CCCc1nn(C)c2c(=O)[nH]c(-c3cc(S(=O)(=O)N4CCN(C)CC4)ccc3OCC)nc12; 0
CCN(CC)CC#CCOC(=O)C(O)(c1ccccc1)C1CCCCC1 (configuration not stated); 25.33
O=C(O)c1cccnc1; 80

* * *

species: Rattus norvegicus; assay: DrugMatrix - Regimen: Daily Repeat; assay type: toxicity, organism-based, Sprague-Dawley; set-up: regimen Daily Repeat, gender Male, age 6-8 weeks; settings: in vivo, po, 0.0007 mg/kg, […], tissue Blood, route oral GAVAGE, dose level Low, time 28 day, vehicle .5 % CMC
result_type: ABSOLUTE EOSINOPHIL (cells/µL)

Clc1cc2c(cc1Cl)Oc1cc(Cl)c(Cl)cc1O2; 54

* * *

species on record: Rattus norvegicus; experiment: DrugMatrix - Regimen: Daily Repeat; type: toxicity, organism-based, Sprague-Dawley; set-up: regimen Daily Repeat, gender Male, age 6-8 weeks; conditions: in vivo, po, 0 mg/kg, 72 h, tissue Plasma, route oral GAVAGE, dose level Control, time 3 day, […]
Listing: TOTAL PROTEIN of selected compounds
result_type: TOTAL PROTEIN (G/DL)

CN(CCOc1ccc(CC2SC(=O)NC2=O)cc1)c1ccccn1 (stereo not drawn); 5.63
NC[C@@H]1O[C@H](O[C@H]2[C@@H](O)[C@H](O[C@@H]3[C@@H](O)[C@H](N)C[C@H](N)[C@H]3O[C@H]3O[C@H](CN)[C@@H](O)[C@H](O)[C@H]3N)O[C@@H]2CO)[C@H](N)[C@@H](O)[C@@H]1O; 5.88
OCCN1CCN(CCCN2c3ccccc3Sc3ccc(C(F)(F)F)cc32)CC1; 5.8

* * *

species: Rattus norvegicus; test: DrugMatrix - Regimen: Daily Repeat; format: toxicity, organism-based, Sprague-Dawley; parameters: regimen Daily Repeat, gender Male, age 6-8 weeks; details: in vivo, po, 0 mg/kg, 72 h, tissue Blood, route oral GAVAGE, dose level Control, time 3 day, […]
Classify by measured MONOCYTE: true (1) if it is equal to or exceeds 0.8%, false (0) if it is smaller.

CC(=O)Nc1nnc(S(N)(=O)=O)s1 [ACETAZOLAMIDE]; true (1)
COc1ncnc(NS(=O)(=O)c2ccc(N)cc2)c1OC [SULFADOXINE]; true (1)
CC[C@H](C)C(=O)O[C@H]1C[C@H](O)C=C2C=C[C@H](C)[C@H](CC[C@@H](O)C[C@@H](O)CC(=O)O)[C@H]21 [PRAVASTATIN]; false (0)
CC(C)Cc1ccc(CC(=O)O)cc1 [IBUFENAC]; true (1)
C#C[C@]1(O)CC[C@H]2[C@@H]3CCc4cc(O)ccc4[C@H]3CC[C@@]21C [ETHINYL ESTRADIOL]; true (1)
CN(CCOc1ccc(CC2SC(=O)NC2=O)cc1)c1ccccn1 (stereo unspecified) [ROSIGLITAZONE]; false (0)
CC(CCc1ccc(O)cc1)NCCc1ccc(O)c(O)c1 (stereo unspecified) [DOBUTAMINE]; true (1)
CCn1cc(C(=O)O)c(=O)c2cc(F)c(N3CCNCC3)nc21 [ENOXACIN]; true (1)
OCCN1CCN(CCCN2c3ccccc3Sc3ccc(C(F)(F)F)cc32)CC1 [FLUPHENAZINE]; false (0)
NC[C@@H]1O[C@H](O[C@H]2[C@@H](O)[C@H](O[C@@H]3[C@@H](O)[C@H](N)C[C@H](N)[C@H]3O[C@H]3O[C@H](CN)[C@@H](O)[C@H](O)[C@H]3N)O[C@@H]2CO)[C@H](N)[C@@H](O)[C@@H]1O [FRAMYCETIN]; true (1)
CC[C@H](C)C(=O)O[C@H]1C[C@@H](C)C=C2C=C[C@H](C)[C@H](CC[C@@H]3C[C@@H](O)CC(=O)O3)[C@H]21 [LOVASTATIN]; true (1)
